# Test system: A549 NSCLC
# PROTOCOL_DESCRIPTION: NCI tumour cell line growth inhibition, 48 h; in the data active means GI50 below about 0.43 µM; inactive means the rest
# output must be one of TRUE for active, FALSE for inactive

Example results:
>>> classification("CCOc1cc(Cl)c(C(C)NC(=O)c2cccc(OC)c2)cc1OCC (stereo not drawn)")
"FALSE"
>>> classification("CCN1CCN(Cc2ccc(Nc3ncc(F)c(-c4cc(F)c5nc(C)n(C(C)C)c5c4)n3)nc2)CC1")
"TRUE"

Please find the next compound below.
Asked: Assay result, entry CCCCCCCCCCCCCCCC(=O)NS(=O)(=O)OC[C@H]1O[C@@H](n2cnc3c(N)ncnc32)[C@H](O)[C@@H]1O — outcome?
Given back: FALSE
